target: UniProtKB O95255; assay: ABCC6 WT assay: HiBit protein expression; conditions: HEK-293 cells transiently expressing HiBit-tagged ABCC6 WT; 24 h treatment; top concentration 20 μM; read-out: ABCC6 WT EC50, Emax
Sequence (O95255 whole entry): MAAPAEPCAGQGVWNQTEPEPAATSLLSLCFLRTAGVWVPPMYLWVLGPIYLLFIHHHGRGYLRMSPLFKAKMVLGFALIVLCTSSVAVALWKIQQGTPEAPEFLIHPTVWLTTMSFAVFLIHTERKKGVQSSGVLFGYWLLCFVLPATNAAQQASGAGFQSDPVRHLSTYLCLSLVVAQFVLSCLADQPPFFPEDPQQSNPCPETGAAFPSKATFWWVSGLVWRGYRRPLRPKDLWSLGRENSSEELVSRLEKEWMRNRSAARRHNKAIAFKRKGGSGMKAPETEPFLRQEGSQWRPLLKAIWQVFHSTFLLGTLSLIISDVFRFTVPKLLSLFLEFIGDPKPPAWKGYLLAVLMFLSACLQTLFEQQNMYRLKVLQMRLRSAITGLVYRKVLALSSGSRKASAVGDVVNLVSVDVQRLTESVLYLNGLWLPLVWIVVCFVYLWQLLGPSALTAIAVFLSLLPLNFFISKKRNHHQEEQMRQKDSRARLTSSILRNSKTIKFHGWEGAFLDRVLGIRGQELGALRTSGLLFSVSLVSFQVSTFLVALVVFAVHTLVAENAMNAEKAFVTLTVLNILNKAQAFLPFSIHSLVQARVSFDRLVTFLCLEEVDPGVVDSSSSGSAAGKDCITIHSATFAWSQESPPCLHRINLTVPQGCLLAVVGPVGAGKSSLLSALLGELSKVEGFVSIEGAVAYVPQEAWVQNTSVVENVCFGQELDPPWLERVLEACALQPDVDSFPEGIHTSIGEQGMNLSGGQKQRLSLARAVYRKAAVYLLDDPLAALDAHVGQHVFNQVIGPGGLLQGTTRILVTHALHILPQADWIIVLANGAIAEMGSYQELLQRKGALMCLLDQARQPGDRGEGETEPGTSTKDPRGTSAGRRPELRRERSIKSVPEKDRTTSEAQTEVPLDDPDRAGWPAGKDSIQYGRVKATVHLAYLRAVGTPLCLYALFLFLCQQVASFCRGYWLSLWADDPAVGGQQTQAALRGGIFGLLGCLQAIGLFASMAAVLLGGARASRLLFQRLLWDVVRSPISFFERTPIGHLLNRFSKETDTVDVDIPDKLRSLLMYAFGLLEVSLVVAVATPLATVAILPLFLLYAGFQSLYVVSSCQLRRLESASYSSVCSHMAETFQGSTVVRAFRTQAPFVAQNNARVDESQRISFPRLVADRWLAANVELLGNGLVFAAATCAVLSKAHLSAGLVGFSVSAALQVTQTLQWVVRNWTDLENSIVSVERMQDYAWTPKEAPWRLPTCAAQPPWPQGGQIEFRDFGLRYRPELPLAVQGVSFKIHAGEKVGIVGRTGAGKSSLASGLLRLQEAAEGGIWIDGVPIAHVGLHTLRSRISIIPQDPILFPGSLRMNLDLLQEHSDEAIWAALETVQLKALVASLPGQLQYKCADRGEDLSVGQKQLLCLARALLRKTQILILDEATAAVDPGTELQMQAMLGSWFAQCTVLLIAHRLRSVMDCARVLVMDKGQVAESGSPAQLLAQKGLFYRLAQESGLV
pEC50: −log10 of the molar value.
Give pEC50 for every item shown.

Form: molecule = Cc1cc(C)c(Oc2nc(N3CC4(CN(C(=O)C5CC5)C4)C3)ccc2NS(C)(=O)=O)c(C)c1 [Compound I-38] ; pEC50 = ≤ 4.60

Per the records, this molecule ( Cc1nc(C(F)(F)F)nc(C2CC2)c1Oc1nc(-c2cncc(Cl)c2)ccc1N(C)S(C)(=O)=O [Compound I-149] ) has pEC50 equal to > 4.60

Looking up Cc1cc(C(F)(F)F)nc(C2CC2)c1Oc1nc(-c2cncc(C#N)c2)ccc1S(=N)(=O)C1CC1 (stereo not drawn) [Compound I-287] , I found its pEC50 recorded as ≤ 4.60

pEC50 reading for Cc1nc(C2COC2)nc(C)c1Oc1nc(-c2cncc(C#N)c2)ccc1NS(C)(=O)=O [Compound I-174] : > 6.00

Kindly note the recorded pEC50 for Cc1cc(C)c(Oc2nc(-c3ccc(C#N)nc3C)ccc2NS(C)(=O)=O)c(C)n1 [Compound I-269] , which is 5.00 to 6.00

Sure, the documented pEC50 for Cc1cc(C)c(Oc2nc(N3CC4(CCN(C(=O)C5CC5)C4)C3)ccc2NS(C)(=O)=O)c(C)c1 [Compound I-31] is 5.00 to 6.00

Documented pEC50 of Cc1cc(C(F)(F)F)nc(C)c1Oc1nc(-c2cncc(C#N)c2)ccc1NS(=O)(=O)C1CC1 [Compound I-218] : > 6.00

Per the records, this molecule ( Cc1cc(C(F)(F)F)nc(C2CC2)c1Oc1nc(-c2cncc(C#N)c2)ccc1NS(=O)(=O)C(C)C [Compound I-141] ) has pEC50 equal to > 6.00

Record Cc1cc(C2CC2)nc(C)c1Oc1nc(-c2cncc(C#N)c2)ccc1NS(=O)(=O)C1CC1 [Compound I-264] . Reported pEC50: ≤ 4.60

Measured pEC50, COC1CN(c2cncc(-c3ccc(NS(C)(=O)=O)c(Oc4c(C)cc(C)nc4C)n3)c2)C1 [Compound I-196] : > 6.00

Measured pEC50, Cc1cc(C)c(Oc2nc(-c3cncc(C#N)c3)ccc2NS(=O)(=O)C2CCC2)c(C)c1 [Compound I-253] : 5.00 to 6.00

The reported pEC50 of the molecule CC(=O)N1CCN(c2ccc(NS(C)(=O)=O)c(Oc3c(C)cc(C)cc3C)n2)CC1 [Compound I-17] was 5.00 to 6.00

Measured pEC50, Cc1cc(C2CC2)nc(C)c1Oc1nc(-c2cncc(C#N)c2)ccc1NS(=O)(=O)C1COC1 [Compound I-235] : > 6.00

Just so you know, measured pEC50 for COC1CC(S(=O)(=O)Nc2ccc(-c3cncc(Cl)c3)nc2Oc2c(C)cc(C)cc2C)C1 (stereo not drawn) [Compound I-51] came out at > 6.00

// pEC50 lookup, molecule = Cc1cc(C)c(Oc2nc(N3CCN(C(=O)C4COC4)CC3)ccc2NS(C)(=O)=O)c(C)c1 [Compound I-23] , result: 4.60 to 5.00

Please fill in: pEC50 reported for Cc1cc(C)c(Oc2nc(-c3cncc(Cl)c3)ncc2NS(C)(=O)=O)c(C)c1 [Compound I-9] = > 6.00

// sample Cc1nc(C2CC2)c(C(F)F)cc1Oc1nc(-c2cncc(C#N)c2)ccc1NS(C)(=O)=O [Compound I-179] , its pEC50 was > 6.00

The measured pEC50 associated with Cc1nc(C(F)(F)F)nc(C2CC2)c1Oc1nc(-c2cncc(C#N)c2)ccc1S(=N)(=O)C1CC1 (stereo not drawn) [Compound I-303] reads 5.00 to 6.00

The molecule listed as Cc1nc(C)c(Oc2nc(-c3cncc(C#N)c3)ccc2NS(C)(=O)=O)c(C2CC2)n1 [Compound I-165] has a reported pEC50 of > 6.00

The value of pEC50 measured for the molecule Cc1cc(C)c(Oc2nc(-c3cncc(Cl)c3)ccc2S(C)(=N)=O)c(C)c1 (stereo not drawn) [Compound I-103] turned out to be > 6.00

The recorded pEC50 for Cc1nc(C2CC2)nc(C2CC2)c1Oc1nc(-c2cncc(C#N)c2)ccc1NS(C)(=O)=O [Compound I-150] is > 6.00

Reported pEC50 ( Cc1nc(C)c(Oc2nc(-c3cncc(C(F)(F)F)c3)ccc2NS(C)(=O)=O)c(C)n1 [Compound I-192] ) = > 6.00

The reported value for Cc1cc(C)c(Oc2nc(-c3cncc(Cl)c3)ccc2S(=O)(=O)NC2CC2)c(C)c1 [Compound I-98] in terms of pEC50 is > 6.00

Per the record, Cc1cc(C)c(Oc2nc(-c3cncc(Cl)c3)ccc2NS(=O)(=O)Cc2ccccc2)c(C)c1 [Compound I-65] has pEC50 of ≤ 4.60

Field pEC50 (entry Cc1cc(Oc2nc(-c3cncc(C#N)c3)ccc2NS(C)(=O)=O)c(C)nc1C(F)(F)F [Compound I-182] ) reads > 6.00

Entry Cc1cc(C(F)(F)F)nc(C)c1Oc1nc(-c2cncc(C#N)c2)ccc1NS(C)(=O)=O [Compound I-240] — recorded pEC50 = > 6.00

GET /value?item= Cc1cc(C)[n+]([O-])c(C)c1Oc1nc(-c2cncc(C#N)c2)ccc1NS(C)(=O)=O [Compound I-311] &field=pEC50 returns 5.00 to 6.00

# pEC50 of Cc1cc(C(F)F)cc(C2CC2)c1Oc1nc(-c2cncc(C#N)c2)ccc1S(=N)(=O)C1CC1 (stereo not drawn) [Compound I-319] = > 6.00

Reported pEC50 of CNS(=O)(=O)c1ccc(-c2cncc(Cl)c2)nc1Oc1c(C)cc(C)cc1C [Compound I-95] : > 6.00

Entry Cc1cc(C)c(Oc2nc(-c3cncc(Cl)c3)ccc2NS(=O)(=O)c2cnn(C)c2)c(C2CC2)c1 [Compound I-58] ; pEC50 = > 4.60
